- study_system: Human immunodeficiency virus type 1 integrase (Human immunodeficiency virus 1, UniProt Q7ZJM1)
- Sequence (Q7ZJM1 whole entry): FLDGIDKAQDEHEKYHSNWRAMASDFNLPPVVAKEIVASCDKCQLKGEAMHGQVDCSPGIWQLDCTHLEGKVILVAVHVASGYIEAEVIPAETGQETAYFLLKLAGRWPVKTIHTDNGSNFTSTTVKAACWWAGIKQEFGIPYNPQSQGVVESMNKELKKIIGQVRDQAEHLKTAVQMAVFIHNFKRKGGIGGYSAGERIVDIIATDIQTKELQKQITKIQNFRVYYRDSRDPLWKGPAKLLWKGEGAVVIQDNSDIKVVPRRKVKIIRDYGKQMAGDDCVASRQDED
- assay_text: Inhibition of recombinant HIV-1 integrase 3'-processing activity expressed in Escherichia coli BL21(DE3) cells using 32P-labeled DNA substrate after 1 hr by densitometric analysis
Exercise: for every item that follows, state its recorded pIC50.
Numbers only, as −log10 of the molar value.

Previously resolved entries follow.
In [3]: df
Out[3]:
                            compound_string  measured_result
0  CCOC(=O)c1c(CC)nc(SCc2ccc(C(=O)/C=C(\O)C(=O)O)cc2)nc1-c1ccccc1             4.68
1  CCOC(=O)c1c(-c2cc(C)cc(C)c2)nc(=O)n(Cc2ccc(C(=O)/C=C(\O)C(=O)O)cc2)c1-c1ccccc1             4.79
2  CCOC(=O)c1c(-c2ccc(OC)cc2)nc(=O)n(Cc2ccc(C(=O)/C=C(\O)C(=O)O)cc2)c1C(C)C             4.72
3  CCOC(=O)c1c(-c2ccc(F)cc2)nc(=O)n(Cc2ccc(C(=O)/C=C(\O)C(=O)O)cc2)c1CC             4.46

Moving on to another compound below.
-- ask Note pIC50 for the compound shown: `CCOC(=O)c1c(CC)nc(SCc2ccc(C(=O)/C=C(\O)C(=O)O)cc2)nc1-c1ccc(F)cc1`
-- reply 4.53

Data origin: ChEMBL document CHEMBL3734651
